Kindly state gMFI of bound PVR-m2aFc at 6.7 nM mAb for each of the entries shown.
Target: T1, human TIGIT on cells (human, UniProt Q495A1 22-141)
T1 construct: also called Expi293 human TIGIT over-expressing cells
T1 sequence: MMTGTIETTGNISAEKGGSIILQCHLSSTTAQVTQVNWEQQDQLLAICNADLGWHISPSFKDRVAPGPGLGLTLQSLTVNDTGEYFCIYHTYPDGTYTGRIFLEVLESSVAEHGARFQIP
Assay: FACS blocking: Expi293 human TIGIT cells pre-incubated with mAb, then human PVR-m2aFc; lower gMFI = more blocking

Some entries whose results are on file:
BM26 hIgG4 (antibody, V domains shown, benchmark anti-human TIGIT antibody, human IgG4 with S241P; also called BM26-H4; WO2016/028656A1 Clone 3106 as hIgG4) VH: EVQLQQSGPELVKPGSSVKMSCKASGYTFSSYVMHWVKQKPGQGLEWIGYIDPYNDGAKYNEKFKGKATLTSDKSSSTAYMELSSLTSEDSAVYYCARGGPYGWYFDVWGAGTTVTVSS VL: DIQMTQSPASLSASVGETVTITCRASEHIYSYLSWYQQKQGKSPQLLVYNAKTLAEGVPSRFSGSGSGTQFSLKINSLQPEDFGTYYCQHHFGSPLTFGAGTTLELKR ... 234
CPA.9.049 hIgG4 (antibody, V domains shown, phage-derived anti-TIGIT, human IgG4; also called CPA.9.049-H4) VH: EVQLVETGGGLIQPGRSLRLSCAASGFTFSSYAMHWVRQAPGKGLEWVAVISYDGSNKYYADSVKGRFTISRDNSKNTLYLQMNSLRAEDTAVYYCARDPLPLHYYGMDVWGQGTTVTVSS VL: QSALTQPRSASGNPGQRVTISCSGSSSNMGRRPVNWYQQIPGTAPKLLIYSQNQRPSGVPDRFSGSQSGTSASLTISGLQSEDEAEYFCAVWDDSLFSLLLGGGTQLAVLG ... 215

Each binder below has a reported value. Please supply its gMFI of bound PVR-m2aFc at 6.7 nM mAb.
1. CPA.9.027 hIgG4 (antibody, V domains shown, phage-derived anti-TIGIT, human IgG4; also called CPA.9.027-H4) VH: EVQLVETGGGLIQPGRSLRLSCAASGFTFSSYAMHWVRQAPGKGLEWVAVISYDGSNKYYADSVKGRFTISRDNSKNTLYLQMNSLRAEDTAVYYCARDPLPLHYYGMDVWGQGTTVTVSS VL: QSALTQPRSASGNPGQRVTISCSGSSSNMGRRPVNWYQQIPGTAPKLLIYSQNQRPSGVPDRFSGSQSGTSASLTISGLQSEDEAEYFCAVWDDSLSSLQLGGGTQLAVLG
2. CPA.9.059 hIgG4 (antibody, V domains shown, phage-derived anti-TIGIT, human IgG4; also called CPA.9.059-H4) VH: EVQLVETGGGLIQPGGSLRLSCAASGFTVSSNYMSWVRQAPGKGLEWVSVIYSGGSTYYADSVKGRFTISRDNSKNTLYLQMNSLRAEDTAVYYCARGARYSYGQYPYWGQGTLVTVSS VL: DIQLTQSPSFLSASVGDRVTITCRASHDISSLFSWYQQKPGKAPKLLIYAASTLQTGVPSRFSGSASGTEFTLTISSLQPEDFATYYCLQLDSFPTWTFGQGTKVEIKR

Result:
1. 208
2. 209
